- System: P12-Ichikawa
- method description: AUC of viability dose-response curve (% viability x log10 dose units); higher = less sensitive
- condition context: HPLM + 10% dialyzed FBS; 48 h
value type: AUC of viability dose-response curve

INSERT INTO results (compound, result) VALUES
  ('C=CC[C@@H]1/C=C(\C)C[C@H](C)C[C@H](OC)[C@H]2O[C@@](O)(C(=O)C(=O)N3CCCC[C@H]3C(=O)O[C@H](/C(C)=C/[C@@H]3CC[C@@H](O)[C@H](OC)C3)[C@H](C)[C@@H](O)CC1=O)[C@H](C)C[C@@H]2OC', 466),
  ('C[C@@H]1[C@H](O)[C@@H](C)/C=C/C=C/C=C/C=C/C=C/C=C/C=C/[C@H](O[C@@H]2O[C@H](C)[C@@H](O)[C@H](N)[C@@H]2O)C[C@@H]2O[C@](O)(C[C@@H](O)C[C@@H](O)[C@H](O)CC[C@@H](O)C[C@@H](O)CC(=O)O[C@H]1C)C[C@H](O)[C@H]2C(=O)O', 468),
  ('CCn1c(-c2nonc2N)nc2cnc(Oc3cccc(NC(=O)c4ccc(OCCN5CCOCC5)cc4)c3)cc21', 446),
  ('NC(=O)c1ccc2[nH]ccc2c1', 440);

====

Attribute: cell viability
- System: P12-Ichikawa
- method description: cell viability relative to DMSO control; higher = less cytotoxic
- condition context: RPMI 5 mM glucose + 10% FBS; 48 h; 46.1 µM
value type: cell viability (%)

INSERT INTO measurements (compound, display_unit, numeric_result) VALUES
  ('C[S+]([O-])(=O)C1=CC=C(C=C1)C/2=C(/C(=O)OC2)C3=CC=CC=C3', '%', 131),
  ('C[N]1C=C(C2=C1C=CC=C2)\C3=C(\C(=O)NC3=O)C4=C5CC(CN)CC[N]5C6=C4C=CC=C6 (configuration not stated)', '%', 45),
  ('Cc1cc(C(C)(C)C)c(O)c(C)c1CC1=NCCN1', '%', 60.5),
  ('C=C[C@H]1CN2CC[C@H]1C[C@H]2[C@H](O)c1ccnc2ccc(OC)cc12', '%', 75.4),
  ('Nc1nc(N)c2nc(CNc3ccc(C(=O)NC(CCC(=O)O)C(=O)O)cc3)cnc2n1 (configuration not stated)', '%', 61),
  ('O=C(Nc1ccc(F)c(C(F)(F)F)c1)Nc1nnc(-c2ccncc2)s1', '%', 99.5),
  ('O=C(Nc1ccccc1-c1cn2c(CN3CCNCC3)csc2n1)c1cnc2ccccc2n1', '%', 1.29),
  ('CN(C)C1=CC=C(C=C1)C(C2=CC=C(C=C2)N(C)C)=C/3\C=C/C(/C=C3)=[N+](C)C', '%', 0.553),
  ('C[S+](=O)([O-])N1CCc2c(-c3cnc(N)nc3)nc(N3CCOCC3)nc21', '%', 71.8),
  ('CC(C)C(=O)Oc1ccc(CO)cc1[C@H](CCN(C(C)C)C(C)C)c1ccccc1', '%', 83.4),
  ('CC(C)NC[C@@H](C(=O)N1CCN(c2ncnc3c2[C@H](C)C[C@H]3O)CC1)c1ccc(Cl)cc1', '%', 33.6),
  ('C[C@]12CCC(=O)C=C1CC[C@@H]1[C@@H]2CC[C@@]2(C)[C@H]1CC[C@]2(C)O', '%', 79.8);
